measured_quantity: pIC50
Recall that pIC50 is obtained by taking minus log10 of the concentration measured in molar.

What value of pIC50 on HCoV-229E 3CLpro (Human coronavirus 229E, UniProt P0C6X1) does CC(C)(C)[C@H](NC(=O)C(F)(F)F)C(=O)N1C[C@@H]2CCC[C@@H]2[C@H]1C(=O)NN(C[C@@H]1CCCNC1=O)C(=O)[C@H](F)Cl [Example 164a] have?
7.01

Given the entry "CC[C@H](C)[C@H](NC(=O)C(C)C)C(=O)N1C[C@@H]2CCC[C@@H]2[C@H]1C(=O)NN(C[C@@H]1CCNC1=O)C(=O)[C@H](F)Cl" , what pIC50 was observed with HCoV-229E 3CLpro (Human coronavirus 229E, UniProt P0C6X1)?
7.59

Short answer please: pIC50, HCoV-229E 3CLpro (Human coronavirus 229E, UniProt P0C6X1), entry "CC[C@H](C)[C@H](NC(=O)C(C)(F)F)C(=O)N1C[C@@H]2CCC[C@@H]2[C@H]1C(=O)NN(C[C@@H]1CCNC1=O)C(=O)[C@H](F)Cl"
7.57

Request body: readout pIC50, system HCoV-229E 3CLpro (Human coronavirus 229E, UniProt P0C6X1), query "CC(C)(C)[C@H](NC(=O)C(F)(F)F)C(=O)N1C[C@@H]2CC[C@@H]2[C@H]1C(=O)NN(C[C@@H]1CCNC1=O)C(=O)[C@H](F)Cl" . Return the value.
6.98

Please tell me: pIC50 of "CCC(C)(C)[C@H](NC(=O)[C@@H]1CC1(F)F)C(=O)N1C[C@@H]2CCC[C@@H]2[C@H]1C(=O)NN(C[C@@H]1CCNC1=O)C(=O)[C@@H](F)Cl" , system HCoV-229E 3CLpro (Human coronavirus 229E, UniProt P0C6X1)?
7.55

Given the entry "CC[C@H](C)[C@H](NC(=O)C(F)F)C(=O)N1C[C@@H]2CCC[C@@H]2[C@H]1C(=O)NN(C[C@@H]1CCNC1=O)C(=O)[C@@H](F)Cl" , what pIC50 was observed with HCoV-229E 3CLpro (Human coronavirus 229E, UniProt P0C6X1)?
7.46

Field: pIC50 (HCoV-229E 3CLpro (Human coronavirus 229E, UniProt P0C6X1)). Entry: "CC(C)(C)[C@H](NC(=O)[C@H]1CC1(F)F)C(=O)N1C[C@@H]2CCC[C@@H]2[C@H]1C(=O)NN(C[C@@H]1CCNC1=O)C(=O)[C@H](F)Cl"
7.49

Can you look up pIC50 on HCoV-229E 3CLpro (Human coronavirus 229E, UniProt P0C6X1) for CCC(C)[C@H](NC(=O)C1(F)CCC1)C(=O)N1C[C@@H]2CCC[C@@H]2[C@H]1C(=O)NN(C[C@@H]1CCNC1=O)C(=O)[C@H](F)Cl (stereo in doubt) ?
7.38

Given the entry "CC[C@H](C)[C@H](NC(=O)C(C)(C)F)C(=O)N1C[C@@H]2CCC[C@@H]2[C@H]1C(=O)NN(C[C@@H]1CCNC1=O)C(=O)[C@H](F)Cl" , what pIC50 was observed with HCoV-229E 3CLpro (Human coronavirus 229E, UniProt P0C6X1)?
7.62

For the record "CC[C@H](C)[C@H](NC(=O)C1(F)CC1)C(=O)N1C[C@H]2[C@@H]([C@H]1C(=O)NN(C[C@@H]1CCNC1=O)C(=O)[C@@H](F)Cl)C2(C)C" , what value of pIC50 is listed for HCoV-229E 3CLpro (Human coronavirus 229E, UniProt P0C6X1)?
7.18

Give the reported pIC50 for "CC[C@H](C)[C@H](NC(=O)[C@@H](F)Cl)C(=O)N1C[C@H]2[C@@H]([C@H]1C(=O)NN(C[C@@H]1CCNC1=O)C(=O)[C@@H](F)Cl)C2(C)C" (system: HCoV-229E 3CLpro (Human coronavirus 229E, UniProt P0C6X1)).
Sequence (P0C6X1 2966-3267): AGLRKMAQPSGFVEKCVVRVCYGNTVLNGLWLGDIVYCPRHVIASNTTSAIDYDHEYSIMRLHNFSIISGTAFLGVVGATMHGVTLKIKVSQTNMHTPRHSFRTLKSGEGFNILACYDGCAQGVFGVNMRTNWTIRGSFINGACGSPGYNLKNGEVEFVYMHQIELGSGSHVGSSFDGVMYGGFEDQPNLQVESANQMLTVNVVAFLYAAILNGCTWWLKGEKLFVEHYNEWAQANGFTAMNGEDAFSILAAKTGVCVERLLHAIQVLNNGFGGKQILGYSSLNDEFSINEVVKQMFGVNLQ
7.31

Field: pIC50 (HCoV-229E 3CLpro (Human coronavirus 229E, UniProt P0C6X1)). Entry: "CC(C)(C)[C@H](NC(=O)C1(F)CC1)C(=O)N1C[C@H]2[C@@H]([C@H]1C(=O)NN(C[C@@H]1CCNC1=O)C(=O)[C@@H](F)Cl)C2(C)C"
7.23

Query the reported pIC50 for HCoV-229E 3CLpro (Human coronavirus 229E, UniProt P0C6X1); item: "CC1(C)[C@@H]2[C@@H](C(=O)NN(C[C@@H]3CCNC3=O)C(=O)[C@H](F)Cl)N(C(=O)c3cc(F)cc(C(F)(F)F)c3)C[C@@H]21"
7.03

Provide value of pIC50 for this record tested with HCoV-229E 3CLpro (Human coronavirus 229E, UniProt P0C6X1): "CCC(CC)[C@H](NC(=O)C1CC1)C(=O)N1C[C@H]2[C@@H]([C@H]1C(=O)NN(C[C@@H]1CCNC1=O)C(=O)[C@H](F)Cl)C2(C)C"
7.54

Notebook entry, HCoV-229E 3CLpro (Human coronavirus 229E, UniProt P0C6X1) assay: pIC50 of "CC[C@H](C)[C@H](NC(=O)[C@@H](F)Cl)C(=O)N1C[C@H]2[C@@H]([C@H]1C(=O)NN(C[C@@H]1CCCNC1=O)C(=O)[C@@H](F)Cl)C2(C)C" = ?
7.62

Return pIC50 measured with HCoV-229E 3CLpro (Human coronavirus 229E, UniProt P0C6X1) given this molecule: CC(C)(C)[C@H](NC(=O)C(F)(F)F)C(=O)N1CCC(C)(C)[C@H]1C(=O)NN(C[C@@H]1CCNC1=O)C(=O)[C@H](F)Cl [Example 155a]
6.13

Record CCC(CC)[C@H](NC(=O)C(C)F)C(=O)N1CC(C)(C)C[C@H]1C(=O)NN(C[C@@H]1CCNC1=O)C(=O)[C@H](F)Cl (mixture of isomers) : what is its pIC50 with HCoV-229E 3CLpro (Human coronavirus 229E, UniProt P0C6X1)?
7.34

Lookup: pIC50 / HCoV-229E 3CLpro (Human coronavirus 229E, UniProt P0C6X1) / "CC(C)(C)[C@H](NC(=O)C(F)(F)F)C(=O)N1C[C@H]2[C@@H]([C@H]1C(=O)NN(Cc1cc[nH]n1)C(=O)[C@H](F)Cl)C2(C)C"
5.91

Form field - read-out: pIC50; system: HCoV-229E 3CLpro (Human coronavirus 229E, UniProt P0C6X1); submitted item: "CC(C)(C)[C@H](NC(=O)C1(F)CC1)C(=O)N1C[C@@H]2CCC[C@@H]2[C@H]1C(=O)NN(C[C@@H]1CCNC1=O)C(=O)[C@@H](F)Cl"
6.78

Request: pIC50, test system HCoV-229E 3CLpro (Human coronavirus 229E, UniProt P0C6X1), entry "CC(F)(F)C(=O)N[C@H](C(=O)N1C[C@@H]2CCC[C@@H]2[C@H]1C(=O)NN(C[C@@H]1CCNC1=O)C(=O)[C@H](F)Cl)C(C)(C)C"
7.31

State its pIC50 on HCoV-229E 3CLpro (Human coronavirus 229E, UniProt P0C6X1): "CCC(C)(C)[C@H](NC(=O)C(F)F)C(=O)N1C[C@@H]2CCC[C@@H]2[C@H]1C(=O)NN(C[C@@H]1CCNC1=O)C(=O)[C@H](F)Cl"
7.51
